Test: Antiviral CPE assay against SARS-CoV-2
Format: cell-based
Residues, ends and D or L forms follow the SMILES beside them.
readout name: CC50

Challenge: Please give the documented CC50 of CCC[C@H](NC(=O)[C@H](CC(C)C)NC(=O)OCc1ccccc1)C(=O)C(=O)NCc1ccccn1
Response given: > 50 µM

Challenge: Please give the documented CC50 of CSCC[C@@H](C=O)NC(=O)[C@H](CC(C)C)NC(=O)[C@H](CC(C)C)NC(C)=O [Calpain inhibitor II (61), Calpain inhibitor II] (Ac-Leu-Leu-Met-aldehyde)
Response given: > 100 µM

Challenge: Please give the documented CC50 of CC(C)C[C@H](NC(=O)OCc1ccccc1)C(=O)N[C@@H](C[C@@H]1CCNC1=O)C(O)S(=O)(=O)[O-].[Na+] (stereo partly drawn)
Response given: > 100 µM
